Provenance of the data: patent US11912682B2

Answer each item with its documented DC50.
Biological target: GSPT1 (Homo sapiens (Human), UniProt P15170+Q96SW2)
Sequence (P15170 whole entry): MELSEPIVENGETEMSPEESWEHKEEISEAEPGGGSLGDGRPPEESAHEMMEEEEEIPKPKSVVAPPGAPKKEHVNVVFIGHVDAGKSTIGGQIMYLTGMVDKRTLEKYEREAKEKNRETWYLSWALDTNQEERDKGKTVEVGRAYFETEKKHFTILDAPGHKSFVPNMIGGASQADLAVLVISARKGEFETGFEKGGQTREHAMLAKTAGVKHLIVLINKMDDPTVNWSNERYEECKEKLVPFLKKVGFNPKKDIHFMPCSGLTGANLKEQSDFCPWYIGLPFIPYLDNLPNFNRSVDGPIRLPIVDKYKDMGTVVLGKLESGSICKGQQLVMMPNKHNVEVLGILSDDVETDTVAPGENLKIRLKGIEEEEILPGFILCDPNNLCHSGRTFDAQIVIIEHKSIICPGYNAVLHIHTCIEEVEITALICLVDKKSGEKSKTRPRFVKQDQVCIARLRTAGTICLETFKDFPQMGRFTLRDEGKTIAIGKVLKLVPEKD
Sequence (Q96SW2 whole entry): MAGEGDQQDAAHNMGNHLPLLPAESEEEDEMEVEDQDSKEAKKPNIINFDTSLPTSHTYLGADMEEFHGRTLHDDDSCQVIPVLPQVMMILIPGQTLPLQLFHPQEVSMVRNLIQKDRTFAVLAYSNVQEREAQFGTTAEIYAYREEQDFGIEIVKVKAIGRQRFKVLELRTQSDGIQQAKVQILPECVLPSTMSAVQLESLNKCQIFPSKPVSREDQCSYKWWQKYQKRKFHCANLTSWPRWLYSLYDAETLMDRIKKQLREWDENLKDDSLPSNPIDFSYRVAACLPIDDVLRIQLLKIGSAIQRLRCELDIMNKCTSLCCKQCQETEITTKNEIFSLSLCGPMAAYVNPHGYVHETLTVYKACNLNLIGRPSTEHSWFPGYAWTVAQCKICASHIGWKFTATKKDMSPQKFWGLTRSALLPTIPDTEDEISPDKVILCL
Sequence (Q16531 2-1140 partner): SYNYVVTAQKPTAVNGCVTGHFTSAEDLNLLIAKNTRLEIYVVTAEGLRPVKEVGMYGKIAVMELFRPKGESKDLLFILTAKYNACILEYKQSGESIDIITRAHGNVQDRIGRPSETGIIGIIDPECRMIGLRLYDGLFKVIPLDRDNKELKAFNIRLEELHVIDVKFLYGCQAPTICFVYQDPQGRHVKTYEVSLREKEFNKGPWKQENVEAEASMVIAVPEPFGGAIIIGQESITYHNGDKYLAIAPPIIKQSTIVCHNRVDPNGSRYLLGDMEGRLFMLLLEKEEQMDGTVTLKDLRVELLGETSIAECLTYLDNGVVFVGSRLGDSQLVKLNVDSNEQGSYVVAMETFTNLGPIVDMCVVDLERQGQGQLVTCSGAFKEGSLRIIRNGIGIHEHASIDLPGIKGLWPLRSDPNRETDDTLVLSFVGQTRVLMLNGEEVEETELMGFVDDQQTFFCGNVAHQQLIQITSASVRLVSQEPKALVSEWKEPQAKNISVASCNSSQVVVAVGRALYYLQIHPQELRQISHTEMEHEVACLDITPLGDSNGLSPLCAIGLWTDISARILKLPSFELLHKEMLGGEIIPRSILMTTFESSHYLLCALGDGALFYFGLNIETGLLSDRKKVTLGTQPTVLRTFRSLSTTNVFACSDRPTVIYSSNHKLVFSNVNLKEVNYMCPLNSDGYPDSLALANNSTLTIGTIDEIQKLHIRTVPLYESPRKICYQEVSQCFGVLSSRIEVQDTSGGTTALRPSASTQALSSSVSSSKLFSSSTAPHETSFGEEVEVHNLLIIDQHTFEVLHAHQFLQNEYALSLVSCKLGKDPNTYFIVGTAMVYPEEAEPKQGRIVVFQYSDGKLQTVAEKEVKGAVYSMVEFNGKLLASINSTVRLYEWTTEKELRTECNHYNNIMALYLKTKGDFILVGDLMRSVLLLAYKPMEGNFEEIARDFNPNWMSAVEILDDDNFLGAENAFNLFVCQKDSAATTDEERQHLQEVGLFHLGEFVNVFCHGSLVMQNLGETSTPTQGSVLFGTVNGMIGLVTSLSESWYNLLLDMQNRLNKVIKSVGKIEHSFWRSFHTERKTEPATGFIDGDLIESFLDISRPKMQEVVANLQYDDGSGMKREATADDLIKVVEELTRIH
Test: immunofluorescence assay for GSPT1 degradation in CAL-51 cells (Example 4)
Assay type: cell-based
Details: 6 hours, read-out: Activity for GSPT1 degradation, Code (DC50)

# input Return reported DC50 for target or system GSPT1 (Homo sapiens (Human), UniProt P15170+Q96SW2), item O=C1CCC(N2Cc3ccc(COC(=O)Nc4cccc(OC(F)F)c4)cc3C2=O)C(=O)N1 (centres unmarked) .
# output < 30 nM

# input Lab note: GSPT1 (Homo sapiens (Human), UniProt P15170+Q96SW2) assay, enter DC50 for Cc1c(Cl)cc(NC(=O)OCc2ccc3c(c2)C(=O)N(C2CCC(=O)NC2=O)C3)cc1CN1CC2CCC(C1)O2 (centres unmarked) here
# output < 30 nM

# input Fill in: DC50 on GSPT1 (Homo sapiens (Human), UniProt P15170+Q96SW2), entry CC1(c2ccc(NC(=O)OCc3ccc4c(c3)C(=O)N(C3CCC(=O)NC3=O)C4)cc2)COC1 (centres unmarked)
# output 30 to 300 nM

# input // fetch DC50; item: Cc1cc(C#N)cc(NC(=O)OCc2ccc3c(c2)C(=O)N(C2CCC(=O)NC2=O)C3)c1 (centres unmarked) ; system: GSPT1 (Homo sapiens (Human), UniProt P15170+Q96SW2)
# output 30 to 300 nM

# input Look up and report DC50, with GSPT1 (Homo sapiens (Human), UniProt P15170+Q96SW2) as system, for CC1COc2cc(NC(=O)OCc3ccc4c(c3)C(=O)N(C3CCC(=O)NC3=O)C4)ccc21 (centres unmarked)
# output 30 to 300 nM

# input Name the value of DC50 reported for Cc1ccccc1-c1ccc(NC(=O)OCc2ccc3c(c2)C(=O)N(C2CCC(=O)NC2=O)C3)cn1 (centres unmarked) when tested on GSPT1 (Homo sapiens (Human), UniProt P15170+Q96SW2).
# output < 30 nM

# input Please report DC50 with GSPT1 (Homo sapiens (Human), UniProt P15170+Q96SW2) for item O=C1CCC(N2Cc3ccc(COC(=O)Nc4cnc5c(c4)COCC5)cc3C2=O)C(=O)N1 (centres unmarked) .
# output > 300 nM

# input Enter measured DC50, system GSPT1 (Homo sapiens (Human), UniProt P15170+Q96SW2), for the compound shown: CC1CCCN1c1ccc(NC(=O)OCc2ccc3c(c2)C(=O)N(C2CCC(=O)NC2=O)C3)cn1 (centres unmarked)
# output < 30 nM

# input State measured DC50 of the compound O=C1CCC(N2Cc3ccc(COC(=O)Nc4ccc(OC(F)(F)F)cc4F)cc3C2=O)C(=O)N1 (centres unmarked) with GSPT1 (Homo sapiens (Human), UniProt P15170+Q96SW2).
# output > 300 nM

# input Please look at O=C1CCC(N2Cc3ccc(COC(=O)N4CCN(c5ccccc5)CC4)cc3C2=O)C(=O)N1 (centres unmarked) and tell me its recorded DC50 on GSPT1 (Homo sapiens (Human), UniProt P15170+Q96SW2).
# output > 300 nM

# input Look up and report measured DC50 (GSPT1 (Homo sapiens (Human), UniProt P15170+Q96SW2)) for the following compound: Cc1ccc(NC(=O)OC(C)c2ccc3c(c2)C(=O)N(C2CCC(=O)NC2=O)C3)cc1Cl (centres unmarked)
# output > 300 nM
